ASSAY_NOTES: NCI Yeast Anticancer Drug Screen. Data for the cln2 rad14 strain (AID 165);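 further: 0% = growth equal to vehicle treated cultures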
CONDITIONS: S. cerevisiae cln2 rad14 strain, at 50.0 µM
The panel holds about 79,000 compounds, 15% with a hit somewhere; the sample as a whole holds those more often. Active and inactive are the calls of the source. No stated cut-off is given here; in the data, active means growth inhibition above about 70%; inactive means the rest.
The categories you may choose from are 1 (yes) = active, 0 (no) = inactive

Sample answers from the record:
>  <COMPOUND>
CCC[n+]1ccc(CCS(=O)(=O)c2ccc(N)cc2)cc1

>  <CAT>
0 (no)

$$$$
>  <COMPOUND>
C=CC[N+](CCO)(CCO)CCCCCCCCCCCCCCCCCC

>  <CAT>
1 (yes)

$$$$
>  <COMPOUND>
COc1ccc(-n2cc[n+](C)c2/C=N\O)cc1

>  <CAT>
0 (no)

$$$$
>  <COMPOUND>
CCOC(=O)CC(C(C)=O)C(=O)OCC (stereo not drawn)

>  <CAT>
0 (no)

$$$$
>  <COMPOUND>
COc1cccc(C(=O)C(CCC#N)c2ccccc2)c1 (stereo not drawn)

>  <CAT>
0 (no)

$$$$

Dear colleague, could you share the recorded outcome for CCCCOC(=O)c1ccccc1OC when you have a moment?
0 (no)

Any idea what this test logged for O=C(O)C1CC(Cl)C(Cl)CC1C(=O)O (stereo not drawn) ?
0 (no)

Which result was noted for this compound in the test: Nc1ccc(/C=C/c2ccc(N)cc2)cc1
0 (no)

Per the assay record, what outcome was assigned to [Cl][Sn]1([Cl])[CH2]CCCCCCCCCC[CH2][Sn]([Cl])([Cl])[CH2]CCCCCCCCCC[CH2]1 ?
0 (no)

---

ASSAY_NOTES: NCI Yeast Anticancer Drug Screen. Data for the bub3 strain (AID 167)
CONDITIONS: S. cerevisiae bub3 mutant strain, at 50.0 µM, stronger effect = higher value
About 79,000 compounds went through this panel and 15% of them were active in at least one assay; those are over-represented in the sample as a whole. Calls of active or inactive are those of the source. No stated cut-off is given here; in the data, active means growth inhibition above about 70%; inactive means the rest.
Measured growth inhibition accompanies every entry in the list below.

>  <COMPOUND>
CCCCCCCCOc1ccc(C=Nc2ccc(C)cc2)cc1

>  <VALUE_KIND>
growth inhibition

>  <REPORTED_VALUE>
16.9% (inactive)

$$$$
>  <COMPOUND>
BrCCCCOc1ccccc1

>  <VALUE_KIND>
growth inhibition

>  <REPORTED_VALUE>
-2.7% (inactive)

$$$$
>  <COMPOUND>
CCOC(=O)CCCCC(N)=O

>  <VALUE_KIND>
growth inhibition

>  <REPORTED_VALUE>
11.4% (inactive)

$$$$
>  <COMPOUND>
Cc1ccc(S(=O)(=O)OCC2CC=CCC2COC(=O)c2ccc([N+](=O)[O-])cc2)cc1 (stereo unspecified)

>  <VALUE_KIND>
growth inhibition

>  <REPORTED_VALUE>
6.6% (inactive)

$$$$

Recorded growth inhibition for C=C(C)S(=O)(=O)c1ccc(C)cc1 , please?
12% (inactive)

Sample CC1ON2CCCC2[C@H]1C(=O)N1C2CC3CCC2(CS1(=O)=O)C3(C)C (stereo partly specified) — what was its growth inhibition?
19.4% (inactive)

Given the entry CCCC(=O)C1=CC(C(C)C)CCC1C (stereo unspecified) , report its measured growth inhibition.
1.15% (inactive)

So what's the measured growth inhibition for this one? COc1ccc2oc(=O)[nH]c2c1
-6.9% (inactive)

Entry under review: Cc1ccccc1CCCC(C(=O)O)C(=O)O . Reported growth inhibition?
-1.55% (inactive)

Suppose we examine the compound CCCCN(CCOc1ccnc(=O)[nH]1)CC(C)C ; what growth inhibition value has been reported?
11.3% (inactive)
